Values from patent US9637516B2

assay_comment: Single dose oral pharmacokinetic study
Format: in vivo, mice
conditions: mouse, plasma; Mice oral PK @30 mg/kg (Table 4)
Entries and their AUC(0-t) values follow.
# unit: µg·h/mL | format: bare number

These recorded examples may help you get a feel for the data.
[[record]]
compound = "CC(C)(CC(=O)O[C@H]1CC[C@]2(C)[C@H]3CC[C@@H]4[C@H]5[C@H](C6(C)CC6)CC[C@]5(C(=O)N5CCC[C@H]5c5ncc(-c6cccnc6)[nH]5)CC[C@@]4(C)[C@]3(C)CC[C@H]2C1(C)C)C(=O)O [Compound 30]"
value_units = "µg·h/mL"
recorded_measurement = 54.6

[[record]]
compound = "C=C(C)[C@@H]1CC[C@]2(C(=O)N3CCC[C@H]3c3ncc(-c4ccc(F)cc4)[nH]3)CC[C@]3(C)[C@H](CC[C@@H]4[C@@]5(C)CC[C@H](OC(=O)CC(C)(C)C(=O)O)C(C)(C)[C@@H]5CC[C@]43C)[C@@H]12 [Compound 34]"
value_units = "µg·h/mL"
recorded_measurement = 224

[[record]]
compound = "C=C(C)[C@@H]1CC[C@]2(C(=O)N3CCC[C@H]3c3ncc(-c4ccccc4)[nH]3)CC[C@]3(C)[C@H](CC[C@@H]4[C@@]5(C)CC[C@H](OC(=O)[C@@H]6C[C@H](C(=O)O)C6(C)C)C(C)(C)[C@@H]5CC[C@]43C)[C@@H]12 [Compound 27]"
value_units = "µg·h/mL"
recorded_measurement = 231


Moving on to another compound below.
Please give the measured AUC(0-t) for this compound: CC1(C)C(C(=O)O)CC1C(=O)O[C@H]1CC[C@]2(C)[C@H]3CC[C@@H]4[C@H]5[C@H](C6(C)CC6)CC[C@]5(C(=O)N5CCC[C@H]5c5ncc(-c6ccc(F)cc6)[nH]5)CC[C@@]4(C)[C@]3(C)CC[C@H]2C1(C)C (stereo partly shown) [Compound 42]
254
